B1: 3'-5' exoribonuclease 1, residues 65 to 114; numbered along this chain, Q8IV48 (parent)
chain: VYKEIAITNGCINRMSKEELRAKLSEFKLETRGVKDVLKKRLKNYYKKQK

variants of: B1; assay: abundance fitness (aPCA) (normalised: wild type 0, dead -1); higher = more abundant; growth selection in yeast, the domain comes from the species named; settings: Homo sapiens
property_name: abundance fitness
Please state the value as a number alone, without comment.

sequence_data="VYKEIAITNGCINRMSKEELRAKLSEFKLETRGPKDVLKKRLKNYYKKQK [V34P]" property_name="abundance fitness" recorded_measurement=-0.379
sequence_data="VYKEIAITNGCINRMSKEELRAKLSEFKLETRGVKNVLKKRLKNYYKKQK [D36N]" property_name="abundance fitness" recorded_measurement=0.02
sequence_data="VYKEIAITNGCINRMSKEELRAKLPEFKLETRGVKDVLKKRLKNYYKKQK [S25P]" property_name="abundance fitness" recorded_measurement=-0.323
sequence_data="VYKEISITNGCINRMSKEELRAKLSEFKLETRGVKDVLKKRLKNYYKKQK [A6S]" property_name="abundance fitness" recorded_measurement=-0.075
sequence_data="VYKEIAITNGCINRMSKEELRAKTSEFKLETRGVKDVLKKRLKNYYKKQK [L24T]" property_name="abundance fitness" recorded_measurement=-0.832

Turning to the following variant.
Entry VYKEIAITNGCINRMSKEELRAKLSEFKLTTRGVKDVLKKRLKNYYKKQK [E30T] — recorded abundance fitness = -0.566
